Test system: Monochoria vaginalis
Experiment: Test Example 12: herbicidal effect test by treatment during growing period in paddy field
Type: in vivo
Details: 120 g/10a; treatment seven days after sowing in flooded paddy pot; assessed 14 days after treatment
OBSERVATION TYPE: Weed suppression rate (%) Monochoria vaginalis
Numbers only here, please. The scale is %.

Worked examples, 5 compounds total:
# COMPOUND, OBSERVED
data = [
    ("CC(C)N(C(=O)n1cnn(S(=O)(=O)c2ccc(Cl)cc2)c1=O)c1ccc(Cl)cn1 [Compound 11-612]", 70),
    ("CC(C)N(C(=O)n1cnn(S(=O)(=O)Cc2ccccc2)c1=O)c1ccc(F)cc1F [Compound 11-944]", 90),
    ("CC(C)N(C(=O)n1cnn(S(=O)(=O)c2ccc(Cl)cc2)c1=O)c1cccc(F)c1F [Compound 11-587]", 90),
    ("Cc1nn(S(=O)(=O)C2CC2)c(=O)n1C(=O)N(c1ccc(F)cc1F)C(C)C [Compound 11-246]", 80),
    ("Cc1cc(Cl)ccc1N(C(=O)n1cnn(S(=O)(=O)C(C)C)c1=O)C(C)C [Compound 11-74]", 80),
]

Moving on to another compound below.
**Query** I have this compound here, Cc1cc(N(C(=O)n2cnn(S(=O)(=O)C(C)C)c2=O)C(C)C)no1 [Compound 11-91] , and I need its recorded Weed suppression rate (%) Monochoria vaginalis.
**Result** 80

---

System: Echinochloa crus-galli
Test: Test Example 12: herbicidal effect test by treatment during growing period in paddy field
Type: in vivo
Details: 120 g/10a; treatment seven days after sowing in flooded paddy pot; assessed 14 days after treatment
OBSERVATION TYPE: Weed suppression rate (%) Echinochloa crus-galli
Numbers only here, please. The scale is %.

Worked examples, 3 molecules total:
# SUBSTANCE SMILES, UNITS SYMBOL, OBSERVED
data = [
    ("CC(C)N(C(=O)n1cnn(S(=O)(=O)c2cccs2)c1=O)c1ccc(F)cc1", "%", 90),
    ("CCS(=O)(=O)n1ncn(C(=O)N(c2c(F)cccc2F)C(C)C)c1=O", "%", 100),
    ("Cc1cc(C)c(S(=O)(=O)n2ncn(C(=O)N(c3c(F)c(F)cc(F)c3F)C(C)C)c2=O)c(C)c1", "%", 90),
]

**Query** I have this molecule here, `CC(C)N(C(=O)n1cnn(S(=O)(=O)N2CCCCC2)c1=O)c1ccc(F)cc1F` , and I need its recorded Weed suppression rate (%) Echinochloa crus-galli.
**Result** 100

**Query** Now give it for `CC(C)N(C(=O)n1cnn(S(=O)(=O)C2CC2)c1=O)c1ccc(C#N)cc1Cl` too.
**Result** 90

---

Test system: Echinochloa crus-galli
Experiment: Test Example 11: herbicidal effect test by soil treatment in paddy field
Format: in vivo
Settings: 120 g/10a active ingredient, 14 days after treatment
Measured Weed suppression rate (%) Echinochloa crus-galli, listed per entry.
Numbers only here, please. The scale is %.

Worked examples, 2 compounds total:
# SUBSTANCE SMILES, UNITS SYMBOL, OBSERVED
measured = [
    ("CC(C)N(C(=O)n1cnn(S(=O)(=O)C2CC2)c1=O)c1c(F)c(F)cc(F)c1F", "%", 100),
    ("CC(C)N(C(=O)n1cnn(S(=O)(=O)c2cccc(Cl)c2)c1=O)c1ccc(F)cc1F", "%", 90),
]

Moving on to another compound below.
**Query** I have this compound here, `CC(C)N(C(=O)n1cnn(S(=O)(=O)c2ccc(C(C)(C)C)cc2)c1=O)c1ccc(Cl)cc1Br` , and I need its recorded Weed suppression rate (%) Echinochloa crus-galli.
**Result** 90

The measured values listed here are drawn from patent US11076595B2.
